# Target System: hTREM2 (Homo sapiens, UniProt Q9NZC2)
# Sequence (Q9NZC2 19-230): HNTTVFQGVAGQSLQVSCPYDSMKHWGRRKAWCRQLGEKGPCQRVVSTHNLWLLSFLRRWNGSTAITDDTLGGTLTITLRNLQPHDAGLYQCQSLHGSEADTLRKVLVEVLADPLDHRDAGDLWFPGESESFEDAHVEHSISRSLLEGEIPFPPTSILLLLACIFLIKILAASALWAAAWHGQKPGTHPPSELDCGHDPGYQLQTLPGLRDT
# Sequence (O43914 22-113 partner): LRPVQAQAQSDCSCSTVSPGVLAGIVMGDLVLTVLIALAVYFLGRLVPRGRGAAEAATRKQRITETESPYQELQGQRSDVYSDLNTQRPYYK
# Assay Name: TREM2 agonist potency by Syk phosphorylation (AlphaLisa) in HEK293T-hTREM2 cells, used for Examples 306-429
# Type: cell-based
# Design: expressed in transfected cells; host or cells: HEK293T (HEK293T-hTREM2 cells)
# Assay Context: HEK293 Cells
# Method: In vitro Measurement of Triggering Receptor Expressed on Myeloid Cells 2 activity using cellular phosphorylation of Spleen Tyrosine Kinase (“Syk”) Assays used for Examples 306-429 Measurement of TREM2 agonist potency was done using a HEK cell line expressing human TREM2 and DAP12 (HEK293T-hTREM2 cells). […] The resultant levels of Syk phosphorylation were measured using a commercial AlphaLisa reagent kit. […] Intensities were used to generate a standard curve, and % activation was calculated. […]
pEC50: −log10 of the molar value.
Experimental Endpoint: pEC50

• Cc1nc2cc([C@H]3CCO[C@@H](c4cnn(C5CC5)c4)C3)nc(-c3ccc(F)cc3F)c2nc1C (racemic) [Example 393] = 6.30 to 7.30
• Cc1cnc2c(-c3ccc(Cl)cc3F)nc(N3C[C@@H](C)O[C@@H](c4cnn(C5CC5)c4)C3)cc2n1 (racemic) [Example 368] = 6.30 to 7.30
• Cc1cc([C@@H]2C[C@H](c3nc(-c4ccc(Cl)c(F)c4F)c4nc(C)c(C)nc4n3)CCO2)ccn1 [Example 396] = 6.30 to 7.30
• Cc1cc([C@H]2C[C@@H](c3nc(-c4ccc(Cl)cc4F)c4ccc(C)nc4n3)CCO2)ccn1 (racemic) [Example 325] = ≥ 7.30
• COc1cc(C2CN(c3nc4nc(C)c(C)nc4c([C@]45C[C@](C(F)(F)F)(C4)C5)n3)CCO2)ccn1 (mixture of isomers) [Example 318] = ≥ 7.30
• Cc1cc(C2CN(c3cc4nc(C)c(C)nc4c(-c4ccc(C(F)(F)F)nc4)n3)CCO2)ccn1 (centres unmarked) [Example 312] = ≥ 7.30
• Cc1cc([C@H]2C[C@@H](c3cc4nc(C)c(C)nc4c(-c4ccc(F)cc4F)n3)CCO2)ccn1 [Example 317] = ≥ 7.30
• [2H]C([2H])([2H])c1nc2nc([C@H]3CCO[C@@H](c4ccnc(C)c4)C3)nc(-c3ccc(Cl)c(F)c3F)c2nc1C([2H])([2H])[2H] (racemic) [Example 395] = ≥ 7.30
• Cc1cnc2c(-c3ccc(F)cc3F)nc(N3C[C@H](C)O[C@@H](c4cnn(C5CC5)c4)C3)nc2n1 (racemic) [Example 370] = 6.30 to 7.30
• Cc1nc2nc([C@H]3CCO[C@@H](c4cnn(C5CC5)c4)C3)nc(C34CC(C(F)(F)F)(C3)C4)c2nc1C (stereo in doubt) [Example 366] = ≥ 7.30
• Cc1nc2nc(N3C[C@@H](c4cnn(C5CC5)c4)O[C@@H](C)C3)nc(-c3ccc(Cl)cc3F)c2nc1C [Example 424] = ≥ 7.30
• Cc1cnc2c(C34CC(C(F)(F)F)(C3)C4)nc([C@H]3CCO[C@@H](c4cnn(C5CC5)c4)C3)cc2n1 (racemic) [Example 386] = ≥ 7.30
• COc1cc([C@H]2CN(c3nc(-c4ccc(Cl)cc4F)c4nc(C)c(C)nc4n3)CCO2)ccn1 [Example 335] = ≥ 7.30
• Cc1cc([C@@H]2C[C@H](c3cc4nc(C)c(C)nc4c(-c4ccc(F)cc4F)n3)CCO2)ccn1 [Example 316] = 6.30 to 7.30
